Origin of values: patent US7462614B2

Target: truncated human PLK1 (kinase domain) (Homo sapiens, UniProt P53350)
Construct: made in house; host or cells: baculovirus-infected T. ni insect cells
Sequence (P53350 21-346): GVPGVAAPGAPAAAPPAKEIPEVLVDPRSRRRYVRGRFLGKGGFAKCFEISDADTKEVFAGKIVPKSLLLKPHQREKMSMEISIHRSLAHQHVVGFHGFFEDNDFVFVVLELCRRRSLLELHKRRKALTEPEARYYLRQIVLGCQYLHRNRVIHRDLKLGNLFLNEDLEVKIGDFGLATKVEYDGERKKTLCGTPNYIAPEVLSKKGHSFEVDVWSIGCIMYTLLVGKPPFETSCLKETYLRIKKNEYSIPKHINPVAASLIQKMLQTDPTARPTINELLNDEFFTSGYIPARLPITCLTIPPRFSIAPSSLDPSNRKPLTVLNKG
Test: Assay for Inhibition of PLK1 (33P SPA enzyme activity)
Type: biochemical
Conditions: 1 μM ATP, 2 nM enzyme; read-out: Ave pIC50 PLK Enzyme Inhibition (converted)
IC50 listing for selected molecules.

[
  {
    "MOLECULE": "COc1cc(Nc2ncc3c(C)nc(-c4ccc(F)cc4)n3n2)cc(OC)c1OC [Example 4]",
    "ASSAY SYSTEM": "truncated human PLK1 (kinase domain) (Homo sapiens, UniProt P53350)",
    "IC50": "< 0.1 µM"
  },
  {
    "MOLECULE": "COc1cc(Nc2ncc3c(C)nc(-c4ccccc4)n3n2)cc(OC)c1 [Example 93]",
    "ASSAY SYSTEM": "truncated human PLK1 (kinase domain) (Homo sapiens, UniProt P53350)",
    "IC50": "0.1 to 10 µM"
  },
  {
    "MOLECULE": "COc1cc(Nc2ncc3c(C)nc(-c4cccc(Nc5cccc(CS(=O)(=O)N(C)C)c5)c4)n3n2)cc(OC)c1OC [Example 67]",
    "ASSAY SYSTEM": "truncated human PLK1 (kinase domain) (Homo sapiens, UniProt P53350)",
    "IC50": "0.1 to 10 µM"
  },
  {
    "MOLECULE": "COc1cc(Nc2ncc3c(C)nc(-c4cccc(C#Cc5cn[nH]c5)c4)n3n2)cc(OC)c1OC [Example 58]",
    "ASSAY SYSTEM": "truncated human PLK1 (kinase domain) (Homo sapiens, UniProt P53350)",
    "IC50": "0.1 to 10 µM"
  },
  {
    "MOLECULE": "COc1ccc(Nc2ncc3c(C)nc(-c4ccc(OC)cc4)n3n2)cc1 [Example 87]",
    "ASSAY SYSTEM": "truncated human PLK1 (kinase domain) (Homo sapiens, UniProt P53350)",
    "IC50": "0.1 to 10 µM"
  },
  {
    "MOLECULE": "Cc1nc(-c2ccccc2)n2nc(NC3CCCCC3)ncc12 [Example 100]",
    "ASSAY SYSTEM": "truncated human PLK1 (kinase domain) (Homo sapiens, UniProt P53350)",
    "IC50": "> 10 µM"
  },
  {
    "MOLECULE": "Cc1nc(-c2ccccc2)n2nc(NC3CCOCC3)ncc12 [Example 101]",
    "ASSAY SYSTEM": "truncated human PLK1 (kinase domain) (Homo sapiens, UniProt P53350)",
    "IC50": "> 10 µM"
  },
  {
    "MOLECULE": "COc1cc(Nc2ncc3c(C)nc(-c4ccc5c(c4)OCO5)n3n2)cc(OC)c1OC [Example 28]",
    "ASSAY SYSTEM": "truncated human PLK1 (kinase domain) (Homo sapiens, UniProt P53350)",
    "IC50": "0.1 to 10 µM"
  },
  {
    "MOLECULE": "COc1cc(Nc2ncc3c(C)nc(-c4cc5ccccc5[nH]4)n3n2)cc(OC)c1OC [Example 32]",
    "ASSAY SYSTEM": "truncated human PLK1 (kinase domain) (Homo sapiens, UniProt P53350)",
    "IC50": "0.1 to 10 µM"
  },
  {
    "MOLECULE": "COc1ccc(Nc2ncc3c(C)nc(-c4cccc(F)c4)n3n2)cc1 [Example 89]",
    "ASSAY SYSTEM": "truncated human PLK1 (kinase domain) (Homo sapiens, UniProt P53350)",
    "IC50": "0.1 to 10 µM"
  }
]

* * *

Here the recorded IC50 is given for each entry.
Molecular target: truncated human PLK1 (kinase domain) (Homo sapiens, UniProt P53350)
Construct: made in house; host or cells: baculovirus-infected T. ni insect cells
Assay: Assay for Inhibition of PLK1 (33P SPA enzyme activity)
Format: biochemical
Conditions: 1 μM ATP, 2 nM enzyme; read-out: Ave pIC50 PLK Enzyme Inhibition (converted)
PROPERTY MEASURED: IC50

[
  {
    "COMPOUND": "COc1ccc(Nc2ncc3c(C)nc(-c4cccc(C(F)(F)F)c4)n3n2)c(OC)c1",
    "PROPERTY MEASURED": "IC50",
    "REPORTED MEASUREMENT": "100 to 10000 nM"
  },
  {
    "COMPOUND": "CCS(=O)(=O)c1ccc(OC)c(Nc2ncc3c(C)nc(-c4cccc(Br)c4)n3n2)c1",
    "PROPERTY MEASURED": "IC50",
    "REPORTED MEASUREMENT": "100 to 10000 nM"
  },
  {
    "COMPOUND": "Cc1nc(-c2ccccc2)n2nc(Nc3cccc(CCO)c3)ncc12",
    "PROPERTY MEASURED": "IC50",
    "REPORTED MEASUREMENT": "< 100 nM"
  },
  {
    "COMPOUND": "COc1ccc(OC)c(Nc2ncc3c(C)nc(-c4cccc(C(F)(F)F)c4)n3n2)c1",
    "PROPERTY MEASURED": "IC50",
    "REPORTED MEASUREMENT": "100 to 10000 nM"
  },
  {
    "COMPOUND": "COc1cc(Nc2ncc3c(C)nc(-c4cccc5cccnc45)n3n2)cc(OC)c1OC",
    "PROPERTY MEASURED": "IC50",
    "REPORTED MEASUREMENT": "> 10000 nM"
  },
  {
    "COMPOUND": "COc1cc(Nc2ncc3c(C)nc(-c4cccc(/C(=C\\C(N)=O)c5ccccc5)c4)n3n2)cc(OC)c1OC",
    "PROPERTY MEASURED": "IC50",
    "REPORTED MEASUREMENT": "100 to 10000 nM"
  },
  {
    "COMPOUND": "COc1cc(Nc2ncc3c(C)nc(-c4ccccc4O)n3n2)cc(OC)c1OC",
    "PROPERTY MEASURED": "IC50",
    "REPORTED MEASUREMENT": "100 to 10000 nM"
  },
  {
    "COMPOUND": "COc1ccc(Nc2ncc3c(C)nc(C4CCOCC4)n3n2)cc1",
    "PROPERTY MEASURED": "IC50",
    "REPORTED MEASUREMENT": "100 to 10000 nM"
  },
  {
    "COMPOUND": "COc1cc(Nc2ncc3c(C)nc(-c4ccccc4Nc4cccc(C(F)(F)F)c4)n3n2)cc(OC)c1OC",
    "PROPERTY MEASURED": "IC50",
    "REPORTED MEASUREMENT": "> 10000 nM"
  },
  {
    "COMPOUND": "COc1cccc(Nc2ncc3c(C)nc(-c4ccccc4)n3n2)c1",
    "PROPERTY MEASURED": "IC50",
    "REPORTED MEASUREMENT": "100 to 10000 nM"
  },
  {
    "COMPOUND": "COc1cc(Nc2ncc3c(C)nc(-c4ccc5[nH]ccc5c4)n3n2)cc(OC)c1OC",
    "PROPERTY MEASURED": "IC50",
    "REPORTED MEASUREMENT": "100 to 10000 nM"
  },
  {
    "COMPOUND": "Cc1nc(-c2cccc(C(F)(F)F)c2)n2nc(Nc3ccc(S(N)(=O)=O)cc3)ncc12",
    "PROPERTY MEASURED": "IC50",
    "REPORTED MEASUREMENT": "100 to 10000 nM"
  },
  {
    "COMPOUND": "COc1ccc(NC(C)=O)cc1Nc1ncc2c(C)nc(-c3cccc(C(F)(F)F)c3)n2n1",
    "PROPERTY MEASURED": "IC50",
    "REPORTED MEASUREMENT": "< 100 nM"
  },
  {
    "COMPOUND": "CC(=O)Nc1cccc(Nc2ncc3c(C)nc(-c4cccc(C(F)(F)F)c4)n3n2)c1",
    "PROPERTY MEASURED": "IC50",
    "REPORTED MEASUREMENT": "< 100 nM"
  },
  {
    "COMPOUND": "COc1ccc(Nc2ncc3c(C)nc(-c4ccccc4Cl)n3n2)cc1",
    "PROPERTY MEASURED": "IC50",
    "REPORTED MEASUREMENT": "100 to 10000 nM"
  },
  {
    "COMPOUND": "Cc1nc(-c2ccccc2)n2nc(Nc3cccc(CCS(=O)(=O)O)c3)ncc12",
    "PROPERTY MEASURED": "IC50",
    "REPORTED MEASUREMENT": "< 100 nM"
  },
  {
    "COMPOUND": "COc1cc(Nc2ncc3c(C)nc(-c4cccc(-c5cccc(C(=O)O)c5)c4)n3n2)cc(OC)c1OC",
    "PROPERTY MEASURED": "IC50",
    "REPORTED MEASUREMENT": "100 to 10000 nM"
  },
  {
    "COMPOUND": "COc1cc(Nc2ncc3c(C)nc(-c4cncc(Br)c4)n3n2)cc(OC)c1OC",
    "PROPERTY MEASURED": "IC50",
    "REPORTED MEASUREMENT": "100 to 10000 nM"
  },
  {
    "COMPOUND": "Cc1nc(-c2ccccc2)n2nc(Nc3ccc(OCCN(C)C)cc3)ncc12",
    "PROPERTY MEASURED": "IC50",
    "REPORTED MEASUREMENT": "100 to 10000 nM"
  },
  {
    "COMPOUND": "COc1ccc(CCN)cc1Nc1ncc2c(C)nc(-c3cccc(C(F)(F)F)c3)n2n1",
    "PROPERTY MEASURED": "IC50",
    "REPORTED MEASUREMENT": "< 100 nM"
  },
  {
    "COMPOUND": "COc1cc(Nc2ncc3c(C)nc(-c4ccc(Br)s4)n3n2)cc(OC)c1OC",
    "PROPERTY MEASURED": "IC50",
    "REPORTED MEASUREMENT": "100 to 10000 nM"
  },
  {
    "COMPOUND": "COc1cc(Nc2ncc3c(C)nc(-c4cccc(-c5ccc(CC(N)C(=O)O)cc5)c4)n3n2)cc(OC)c1OC (centres unmarked)",
    "PROPERTY MEASURED": "IC50",
    "REPORTED MEASUREMENT": "100 to 10000 nM"
  },
  {
    "COMPOUND": "COC(=O)c1cccc(-c2nc(C)c3cnc(Nc4cc(OC)c(OC)c(OC)c4)nn23)c1",
    "PROPERTY MEASURED": "IC50",
    "REPORTED MEASUREMENT": "100 to 10000 nM"
  },
  {
    "COMPOUND": "COc1cc(Nc2ncc3c(C)nc(-c4cccc(Nc5ccc(N6CCOCC6)c(Cl)c5)c4)n3n2)cc(OC)c1OC",
    "PROPERTY MEASURED": "IC50",
    "REPORTED MEASUREMENT": "100 to 10000 nM"
  },
  {
    "COMPOUND": "CC(=O)Nc1ccc(Nc2ncc3c(C)nc(-c4ccccc4)n3n2)cc1",
    "PROPERTY MEASURED": "IC50",
    "REPORTED MEASUREMENT": "100 to 10000 nM"
  },
  {
    "COMPOUND": "COc1ccc(CCNC(C)=O)cc1Nc1ncc2c(C)nc(-c3cccc(C(F)(F)F)c3)n2n1",
    "PROPERTY MEASURED": "IC50",
    "REPORTED MEASUREMENT": "< 100 nM"
  },
  {
    "COMPOUND": "Cc1nc(-c2ccccc2)n2nc(Nc3ccc([N+](=O)[O-])cc3)ncc12",
    "PROPERTY MEASURED": "IC50",
    "REPORTED MEASUREMENT": "100 to 10000 nM"
  },
  {
    "COMPOUND": "COc1cc(Nc2ncc3c(C)nc(-c4cccc(Nc5ccc(CN6CCN(C)CC6)cc5)c4)n3n2)cc(OC)c1OC",
    "PROPERTY MEASURED": "IC50",
    "REPORTED MEASUREMENT": "> 10000 nM"
  },
  {
    "COMPOUND": "COc1cc(Nc2ncc3c(C)nc(-c4ccc([N+](=O)[O-])[nH]4)n3n2)cc(OC)c1OC",
    "PROPERTY MEASURED": "IC50",
    "REPORTED MEASUREMENT": "100 to 10000 nM"
  }
]
